# systemTested: T1, human GIP receptor (human, UniProt P48546 22-466)
# T1 sequence (looked up): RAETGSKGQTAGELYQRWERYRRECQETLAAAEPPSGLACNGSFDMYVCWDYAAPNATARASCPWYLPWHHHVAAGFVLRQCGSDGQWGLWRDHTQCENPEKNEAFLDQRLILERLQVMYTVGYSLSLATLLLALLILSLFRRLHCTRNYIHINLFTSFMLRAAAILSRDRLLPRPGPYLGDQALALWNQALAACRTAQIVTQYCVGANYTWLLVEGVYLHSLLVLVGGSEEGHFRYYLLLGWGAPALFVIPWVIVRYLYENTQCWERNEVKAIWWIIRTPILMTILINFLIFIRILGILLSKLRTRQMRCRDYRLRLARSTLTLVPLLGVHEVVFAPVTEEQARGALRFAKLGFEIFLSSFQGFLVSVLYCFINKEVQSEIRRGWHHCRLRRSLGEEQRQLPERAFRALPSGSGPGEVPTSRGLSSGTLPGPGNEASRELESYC
# procedureDetails: cell-based or functional assay
Numbered stars: 1 amine (or outer) side, 2 acyl side, 3 side chain; on linkers, the order of the positions; unused ones are H or OH. Square brackets hold non-standard residues; d marks the D form. Side chains are listed from the residue outwards. * marks the point of attachment. C18 diacid = O=C(O)CCCCCCCCCCCCCCCCC(=O)*; γGlu = O=C(O)[C@H](CCC(=O)[*:2])N[*:1]; AEEA = NCCOCCOCC(=O)O; Aib = CC(C)(N)C(=O)O
observable: hGIPR Potency, 1% HSA, EC50 [pM] (pM)
Quick reminder: number only, in pM, skip the unit.

Data request: Look up hGIPR Potency, 1% HSA, EC50 [pM] for this binder: Compound 97 (peptide) peptide: Y[Aib]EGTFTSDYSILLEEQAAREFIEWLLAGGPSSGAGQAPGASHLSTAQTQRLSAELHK([AEEA-AEEA-γGlu-C18 diacid])LATLPRTETGSGSP-NH2
Data returned: 8.38

Data request: Look up hGIPR Potency, 1% HSA, EC50 [pM] for this binder: Compound 91 (peptide) peptide: H[Aib]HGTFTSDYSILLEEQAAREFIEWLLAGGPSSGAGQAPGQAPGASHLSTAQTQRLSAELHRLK([AEEA-AEEA-γGlu-C18 diacid])TLPRTETGSGSP-NH2
Data returned: 9.31
